Assay overview: Volume of distribution at steady state following epirubicin at 60 mg.m-2 dose in patients with cancer
Type: ADME, organism-based
Test conditions: human, plasma, read-out: Vss
Experimental readout: Vd
# do not omit the unit; it follows the number

### Prompt Entry under review: COc1cccc2c1C(=O)c1c(O)c3c(c(O)c1C2=O)C[C@@](O)(C(=O)CO)C[C@@H]3O[C@H]1C[C@H](N)[C@@H](O)[C@H](C)O1.Cl [EPIRUBICIN HYDROCHLORIDE] . Reported Vd?
### Response 32 L/kg

----------
Assay overview: Urinary excretion of epirubicin following epirubicin at 60 mg.m-2 dose in cancer patients
Type: ADME, organism-based
Test conditions: human, urine, at 60 mg/m2, read-out: Compound recovery
Experimental readout: dose excreted at 168 h (%)
Number in %, nothing else.

### Prompt Could you share which dose excreted at 168 h value was measured for COc1cccc2c1C(=O)c1c(O)c3c(c(O)c1C2=O)C[C@@](O)(C(=O)CO)C[C@@H]3O[C@H]1C[C@H](N)[C@@H](O)[C@H](C)O1.Cl [EPIRUBICIN HYDROCHLORIDE] ?
### Response 6.4

----------
Study system: Albumin (Homo sapiens, UniProt P02768)
Sequence (P02768 whole entry): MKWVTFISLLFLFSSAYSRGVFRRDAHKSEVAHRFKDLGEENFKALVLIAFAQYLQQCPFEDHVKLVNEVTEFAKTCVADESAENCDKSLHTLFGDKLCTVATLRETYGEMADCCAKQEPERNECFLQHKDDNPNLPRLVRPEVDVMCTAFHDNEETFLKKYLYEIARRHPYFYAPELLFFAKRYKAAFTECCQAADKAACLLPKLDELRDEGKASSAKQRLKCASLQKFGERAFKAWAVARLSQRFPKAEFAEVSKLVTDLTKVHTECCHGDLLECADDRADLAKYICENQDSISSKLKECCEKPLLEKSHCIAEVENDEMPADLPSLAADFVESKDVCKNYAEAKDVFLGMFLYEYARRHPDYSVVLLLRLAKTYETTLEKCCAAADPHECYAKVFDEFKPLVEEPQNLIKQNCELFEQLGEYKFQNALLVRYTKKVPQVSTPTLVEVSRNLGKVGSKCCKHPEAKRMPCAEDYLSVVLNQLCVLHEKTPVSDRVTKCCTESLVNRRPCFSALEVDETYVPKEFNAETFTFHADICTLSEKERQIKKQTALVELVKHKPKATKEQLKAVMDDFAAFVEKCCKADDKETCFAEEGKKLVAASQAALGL
Assay overview: Binding of epirubicin to albumin
Assay type: cell-free
Test conditions: read-out: Plasma protein binding (converted)
Experimental readout: fraction unbound

### Prompt Short answer please: fraction unbound, Albumin (Homo sapiens, UniProt P02768), entry COc1cccc2c1C(=O)c1c(O)c3c(c(O)c1C2=O)C[C@@](O)(C(=O)CO)C[C@@H]3O[C@H]1C[C@H](N)[C@@H](O)[C@H](C)O1.Cl [EPIRUBICIN HYDROCHLORIDE]
### Response 0.43

----------
Assay overview: AUC values (0-48 h) of doxorubicin in tumor following single intravenous doxorubicin at 10 mg.Kg-1 dose in female mouse bearing colon tumor
Type: ADME, organism-based, BALB/c, Neoplasm
Design: time < 48 hr, dose 10 mg.Kg-1, dosed compound id 2.46809e+06, dosed compound name Doxorubicin, gender F, regimen Single, route intravenous, sampling time 48 h
Test conditions: in vivo
Experimental readout: AUC (nmol·min/g)
Write it as a number; the unit nmol·min/g goes unstated.

### Prompt Can you share its AUC? I mean this compound: COc1cccc2c1C(=O)c1c(O)c3c(c(O)c1C2=O)C[C@@](O)(C(=O)CO)C[C@@H]3O[C@H]1C[C@H](N)[C@H](O)[C@H](C)O1 [DOXORUBICIN]
### Response 8700

----------
Assay overview: AUC of epirubicin following intravenous epirubicin emulsion at 1 mg.Kg-1 dose in rabbit
Assay type: ADME, organism-based, Oryctolagus cuniculus
Test conditions: both, New Zealand White, blood
Experimental readout: AUC
Quick note: unit goes after the number.

### Prompt Requested field: AUC. Item: COc1cccc2c1C(=O)c1c(O)c3c(c(O)c1C2=O)C[C@@](O)(C(=O)CO)C[C@@H]3O[C@H]1C[C@H](N)[C@@H](O)[C@H](C)O1.Cl [EPIRUBICIN HYDROCHLORIDE]
### Response 134 ng·h/mL

----------
Assay overview: Mean AUC (8-48 h) of epirubicin following intravenous epirubicin at 1 mg.Kg-1 dose administered approximately 25 minute prior to epirubicin once weekly for four weeks in dog
Type: ADME, organism-based, Canis lupus familiaris
Test conditions: Beagle, plasma
Experimental readout: AUC (ng·h/mL)
# value in ng·h/mL; strip the unit string

### Prompt I would be grateful if you could share the reported AUC for COc1cccc2c1C(=O)c1c(O)c3c(c(O)c1C2=O)C[C@@](O)(C(=O)CO)C[C@@H]3O[C@H]1C[C@H](N)[C@@H](O)[C@H](C)O1.Cl [EPIRUBICIN HYDROCHLORIDE] .
### Response 233

----------
Assay overview: Half-life of terminal elimination phase of epirubicin following intravenous epirubicin at 50 mg.m-2 dose in cancer patients
Type: ADME, organism-based
Test conditions: human, plasma
Experimental readout: half-life
Kindly report the value followed by its unit.

### Prompt Sample COc1cccc2c1C(=O)c1c(O)c3c(c(O)c1C2=O)C[C@@](O)(C(=O)CO)C[C@@H]3O[C@H]1C[C@H](N)[C@@H](O)[C@H](C)O1.Cl [EPIRUBICIN HYDROCHLORIDE] — what was its half-life?
### Response 1100 min

----------
Assay overview: in vivo
Test conditions: female, BALB/c, mouse, tumor, iv, 10 mg/kg
Experimental readout: half-life (h)
Express the result in h but write the number alone.

### Prompt Find the recorded half-life belonging to `COc1cccc2c1C(=O)c1c(O)c3c(c(O)c1C2=O)C[C@@](O)(C(=O)CO)C[C@@H]3O[C@H]1C[C@H](N)[C@H](O)[C@H](C)O1` and report it.
### Response 32.1

----------
Assay overview: Urinary elimination of adriamycin following intravenous bolus adriamycin at 10 mg.Kg-1 dose in rat
Type: ADME, organism-based
Set-up: dose 10 mg.Kg-1, dosed compound id 2.46809e+06, dosed compound name Doxorubicin, route intravenous, sampling time 0-24 h
Test conditions: SD, urine, read-out: Compound recovery
Experimental readout: dose excreted (%)
Express your answer in %, writing the number without its unit.

### Prompt Looking for the measured dose excreted of `COc1cccc2c1C(=O)c1c(O)c3c(c(O)c1C2=O)C[C@@](O)(C(=O)CO)C[C@@H]3O[C@H]1C[C@H](N)[C@H](O)[C@H](C)O1` , can you help?
### Response 2.77

----------
Assay overview: Mean residence time (MRT) of epirubicin following intrahepatic epirubicin emulsion at 1 mg.Kg-1 dose in rabbit
Format: ADME, organism-based, Oryctolagus cuniculus
Test conditions: both, New Zealand White, blood, read-out: Mean residence time (converted)
Experimental readout: MRT (h)
// note: answer is a bare numeric in h

### Prompt Item under review: COc1cccc2c1C(=O)c1c(O)c3c(c(O)c1C2=O)C[C@@](O)(C(=O)CO)C[C@@H]3O[C@H]1C[C@H](N)[C@@H](O)[C@H](C)O1.Cl [EPIRUBICIN HYDROCHLORIDE] . Reported MRT?
### Response 1.11

----------
Assay overview: Mean residence time (MRT) of epirubicin following intravenous epirubicin solution at 1 mg.Kg-1 dose in rabbit
Type: ADME, organism-based, Oryctolagus cuniculus
Test conditions: both, New Zealand White, blood, read-out: Mean residence time (converted)
Experimental readout: MRT
Number first, unit second: that is the form wanted.

### Prompt Can you share its MRT? I mean this compound: COc1cccc2c1C(=O)c1c(O)c3c(c(O)c1C2=O)C[C@@](O)(C(=O)CO)C[C@@H]3O[C@H]1C[C@H](N)[C@@H](O)[C@H](C)O1.Cl [EPIRUBICIN HYDROCHLORIDE]
### Response 1.26 h

----------
Assay overview: in vivo
Test conditions: Beagle, dog, plasma, iv, 1.27 mg/kg
Experimental readout: half-life (min)
Note: unit min is implicit; provide only the numeric part.

### Prompt So what does the record say about half-life for COc1cccc2c1C(=O)c1c(O)c3c(c(O)c1C2=O)C[C@@](O)(C(=O)CO)C[C@@H]3O[C@H]1C[C@H](N)[C@H](O)[C@H](C)O1 [DOXORUBICIN] ?
### Response 5.4

----------
Assay overview: Volume of distribution of epirubicin following intrahepatic epirubicin solution at 1 mg.Kg-1 dose in rabbit
Format: ADME, organism-based, Oryctolagus cuniculus
Test conditions: both, New Zealand White, blood
Experimental readout: Vd (L/kg)
Give the quantity in L/kg, number only.

### Prompt // Vd lookup, key: COc1cccc2c1C(=O)c1c(O)c3c(c(O)c1C2=O)C[C@@](O)(C(=O)CO)C[C@@H]3O[C@H]1C[C@H](N)[C@@H](O)[C@H](C)O1.Cl [EPIRUBICIN HYDROCHLORIDE]
### Response 129

----------
Assay overview: Urinary elimination of adriamycin following intravenous bolus adriamycin at 10 mg.Kg-1 dose in rat
Format: ADME, organism-based
Parameters: dose 10 mg.Kg-1, dosed compound id 2.46809e+06, dosed compound name Doxorubicin, route intravenous, sampling time 0-60 h
Test conditions: SD, urine, read-out: Compound recovery
Experimental readout: dose excreted (%)
Just the number please, in %, no unit attached.

### Prompt Using the record for `COc1cccc2c1C(=O)c1c(O)c3c(c(O)c1C2=O)C[C@@](O)(C(=O)CO)C[C@@H]3O[C@H]1C[C@H](N)[C@H](O)[C@H](C)O1` , report its dose excreted.
### Response 3.33

----------
Assay overview: AUC of epirubicin following intrahepatic epirubicin solution at 1 mg.Kg-1 dose in rabbit
Format: ADME, organism-based, Oryctolagus cuniculus
Test conditions: both, New Zealand White, blood
Experimental readout: AUC (ng·h/mL)
# number only, unit ng·h/mL dropped from output

### Prompt I would be grateful if you could share the reported AUC for COc1cccc2c1C(=O)c1c(O)c3c(c(O)c1C2=O)C[C@@](O)(C(=O)CO)C[C@@H]3O[C@H]1C[C@H](N)[C@@H](O)[C@H](C)O1.Cl [EPIRUBICIN HYDROCHLORIDE] .
### Response 65.5

Values compiled from ChEMBL document CHEMBL3508140.
